Target: sucrase/isomaltase (SI) (Sus scrofa)
Assay: Inhibition of SI-catalyzed hydrolysis of sucrose (SI/sucrose), coupled HK/G6PDH optical test
Assay type: biochemical, hog
Conditions: SI/sucrose, with preincubation, Dixon evaluation; read-out: Ki
Measured Endpoint: Ki (µM)
Lab book: enter the figure in µM, no units written.

input: Param item = `N[C@H]1[C@H](O)[C@@H](CO)O[C@@]1(CO)O[C@H]1O[C@H](CO)[C@@H](O)[C@H](O)[C@H]1O` ; retrieve measured Ki.
output: 6.5

---

Biological target: sucrase/isomaltase (SI) (Sus scrofa, UniProt P56729)
Sequence (P56729 with tags, fused parts or gaps): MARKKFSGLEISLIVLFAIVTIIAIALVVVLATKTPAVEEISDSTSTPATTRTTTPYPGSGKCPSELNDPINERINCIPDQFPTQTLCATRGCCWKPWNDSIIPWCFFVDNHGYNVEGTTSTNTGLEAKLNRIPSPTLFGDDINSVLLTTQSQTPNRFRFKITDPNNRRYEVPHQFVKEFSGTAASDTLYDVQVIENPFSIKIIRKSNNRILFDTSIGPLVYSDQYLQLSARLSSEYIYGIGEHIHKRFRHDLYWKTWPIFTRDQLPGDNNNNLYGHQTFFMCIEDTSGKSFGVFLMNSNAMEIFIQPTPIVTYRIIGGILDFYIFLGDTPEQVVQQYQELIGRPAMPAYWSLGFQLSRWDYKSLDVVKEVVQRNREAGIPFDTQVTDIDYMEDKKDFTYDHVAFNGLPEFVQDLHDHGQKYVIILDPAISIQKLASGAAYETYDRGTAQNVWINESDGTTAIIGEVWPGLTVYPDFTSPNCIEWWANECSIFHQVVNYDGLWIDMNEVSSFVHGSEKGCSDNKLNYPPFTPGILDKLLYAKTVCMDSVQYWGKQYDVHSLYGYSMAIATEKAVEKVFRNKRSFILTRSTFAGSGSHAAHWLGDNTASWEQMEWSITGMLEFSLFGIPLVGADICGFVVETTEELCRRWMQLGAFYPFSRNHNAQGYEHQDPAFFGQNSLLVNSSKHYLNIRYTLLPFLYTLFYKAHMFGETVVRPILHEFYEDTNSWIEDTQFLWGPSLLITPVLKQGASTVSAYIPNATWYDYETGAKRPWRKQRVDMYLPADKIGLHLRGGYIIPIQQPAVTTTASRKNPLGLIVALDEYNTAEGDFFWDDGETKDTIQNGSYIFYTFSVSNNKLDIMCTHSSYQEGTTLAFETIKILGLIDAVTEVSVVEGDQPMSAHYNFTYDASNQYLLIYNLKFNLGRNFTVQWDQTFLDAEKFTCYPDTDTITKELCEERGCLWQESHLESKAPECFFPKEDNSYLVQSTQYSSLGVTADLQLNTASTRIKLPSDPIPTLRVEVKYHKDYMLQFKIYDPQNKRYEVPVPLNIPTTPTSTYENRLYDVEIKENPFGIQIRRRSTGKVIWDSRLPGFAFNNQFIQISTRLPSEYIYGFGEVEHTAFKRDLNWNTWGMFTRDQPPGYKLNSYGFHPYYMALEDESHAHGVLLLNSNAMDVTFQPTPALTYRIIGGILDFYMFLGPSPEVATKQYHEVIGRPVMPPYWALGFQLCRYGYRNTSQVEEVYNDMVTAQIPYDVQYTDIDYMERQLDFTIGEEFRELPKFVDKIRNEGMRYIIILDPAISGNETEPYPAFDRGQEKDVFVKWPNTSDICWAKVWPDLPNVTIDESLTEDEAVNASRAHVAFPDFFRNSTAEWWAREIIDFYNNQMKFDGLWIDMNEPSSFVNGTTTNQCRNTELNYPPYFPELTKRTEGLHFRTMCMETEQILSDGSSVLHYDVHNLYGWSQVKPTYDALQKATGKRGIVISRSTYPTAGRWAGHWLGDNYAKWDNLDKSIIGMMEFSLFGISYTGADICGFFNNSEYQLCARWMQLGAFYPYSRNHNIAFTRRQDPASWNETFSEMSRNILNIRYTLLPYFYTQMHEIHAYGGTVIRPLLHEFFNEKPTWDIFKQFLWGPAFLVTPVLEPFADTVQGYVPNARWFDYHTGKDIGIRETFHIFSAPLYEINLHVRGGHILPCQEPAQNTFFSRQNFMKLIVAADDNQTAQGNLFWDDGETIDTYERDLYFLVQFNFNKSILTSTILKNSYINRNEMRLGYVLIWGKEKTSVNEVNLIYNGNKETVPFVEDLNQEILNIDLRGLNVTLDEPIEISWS
Test: Inhibition of SI-catalyzed hydrolysis of maltose (SI/maltose), coupled HK/G6PDH optical test
Type: biochemical, hog
Conditions: SI/maltose; secondary Lineweaver-Burk plots; read-out: Kii
Measured Endpoint: pKi
FYI, pKi means -log10 of a concentration in mol per litre.

input: # input molecule: O=C(O)C1OC(OCC2OC(O)(CO)C(O)C2O)C(O)C(O)C1O (stereo not shown) ; wanted: its pKi
output: 1.51

---

Target: sucrase/isomaltase (SI) (Sus scrofa, UniProt P56729)
Assay: Inhibition of SI-catalyzed hydrolysis of sucrose (SI/sucrose), coupled HK/G6PDH optical test
Type: biochemical, hog
Settings: SI/sucrose; secondary Lineweaver-Burk plots; read-out: Ki
Procedure: A) The activity of the SI enzyme complex was studied using three different substrates, that is to say sucrose, maltose and isomaltose. […] B) In the methods described hereinafter for determining the enzyme activity of sucrase/isomaltase and glucoamylase/maltase under the influence of the substances tested, the amount of glucose or fructose released was determined as measured parameter. […]
Measured Endpoint: pKi
# pKi: negative log10 of molar concentration; output just the value

input: I would be grateful if you could share the reported pKi for O=C(O)C1OC(OCC2OC(O)(CO)C(O)C2O)C(O)C(O)C1O (stereo not shown) [Pal-C6′S, palatinose-C6′-acid] .
output: 2.15

---

Biological target: sucrase/isomaltase (SI) (Sus scrofa, UniProt P56729)
Experiment: Inhibition of SI-catalyzed hydrolysis of maltose (SI/maltose), coupled HK/G6PDH optical test
Format: biochemical, hog
Conditions: SI/maltose, without preincubation, Henderson evaluation; read-out: Ki
Measured Endpoint: Ki (µM)
Reply with just the number (in µM).

input: So what does the record say about Ki for N[C@H]1[C@H](O)[C@@H](CO)O[C@@]1(CO)O[C@H]1O[C@H](CO)[C@@H](O)[C@H](O)[C@H]1O [3′-aminosucrose] ?
output: 5.2
